From: ChEMBL document CHEMBL1201862

System: SNB-75
EXPERIMENT: NCI tumour cell line growth inhibition, 48 h
Activity calls are given as the source filed them. No stated cut-off is given here; in the data, active = GI50 up to about 1.1 µM and inactive = higher.
Choose the fitting class; nothing outside active, inactive is accepted.

Solved cases (5 shown):
# COMPOUND, DISCRETE_LABEL
data = [
    ("O=C(Nc1cc(Cl)ccc1Cl)c1cc2ccccc2oc1=O", "inactive"),
    ("O=C1c2ccccc2-c2nc(/C=C/c3ccccc3)cc3c2c1nc1ccccc13", "inactive"),
    ("CC(C)NC(=O)OCC[S+]([O-])c1c(Cl)c(Cl)nn1C (stereo not given)", "inactive"),
    ("O=C1/C(=C/c2ccc(Cl)cc2)CCC/C1=C\\c1ccc(O)c(CN2CCCCC2)c1", "inactive"),
    ("CO/S(=N/S(=O)(=O)c1ccccc1)c1ccccc1[N+](=O)[O-] (stereo not given)", "inactive"),
]

State the result this test recorded for O=C1/C(=C/c2ccc(F)cc2)CNC/C1=C\c1ccc(F)cc1 .
inactive

Field: outcome | Entry: CN(C)CCNC(=O)c1cccc2nc(-c3ccccc3)oc12
inactive

Recorded call for O=C(c1cc(Cl)cc(Cl)c1)N(Cc1cccnc1)C(=S)N(Cc1cccnc1)C(=O)c1cc(Cl)cc(Cl)c1 ?
inactive

----------
Test system: HOP-92
EXPERIMENT: NCI tumour cell line growth inhibition, 48 h
Calls of active or inactive are those of the source. Cut-off read from the data, not from the text of the source: active = GI50 up to about 1.1 µM and inactive = higher.
MEASUREMENT_TYPE: GI50

// solved cases for GI50 follow
# MOLECULE, GI50
measured = [
    ("CC1(C)C[C@@H]2C1CCC1(C)CC2(O)CC[C@H]1O (stereo not given in full)", "> 100 µM (inactive)"),
    ("C[C@]12CC[C@@H]3c4cc(Br)c(O)c(Br)c4CC[C@H]3[C@@H]1CC(Br)C2=O (stereo not given in full)", "20.7 µM (inactive)"),
    ("CC(=O)NNc1nc(C)c(C(=O)NNC(=O)C(=O)Nc2c(C)cccc2C(C)(C)C)s1", "> 100 µM (inactive)"),
    ("OCC1OC(NC(=S)NCSCCC(F)(F)C(F)(F)C(F)(F)C(F)(F)C(F)(F)C(F)(F)F)C(O)C(O)C1O (stereo not given)", "22.7 µM (inactive)"),
]

Next molecule, please.
Look at this molecule and give its reported GI50. C=C1CCN2CC[C@@H](OC(=O)/C(C)=C\C)[C@@H]12
> 100 µM (inactive)

----------
Tested on: RXF 393
EXPERIMENT: NCI tumour cell line growth inhibition, 48 h
Activity calls are given as the source filed them. Rule as the data show it: active = GI50 up to about 1.1 µM and inactive = higher.
Listing: GI50 of selected compounds

Recorded results for 5 compounds are shown here.
# COMPOUND, GI50
records = [
    ("On1c(-c2ccccc2)nc2ccccc2c1=S", "25.5 µM (inactive)"),
    ("C=CC[C@@]1([C@H](C=C)COCc2ccc(OC)cc2)CC[C@]2(C)OC(C)(C)[C@@H](c3ccccc3)N2C1=S", "86.7 µM (inactive)"),
    ("NC(=O)c1c(NC=O)ncn1C1OCC(O)C(O)C1O (stereo unspecified)", "> 100 µM (inactive)"),
    ("CSc1c([S+](C)[O-])c2ccccc2n1C (stereo unspecified)", "> 100 µM (inactive)"),
    ("COc1cc(C(=O)O)ccc1OS(=O)(=O)O", "30.3 µM (inactive)"),
]

May I ask what GI50 has been recorded for Cc1nccn1S(=O)(=O)c1ccc(Br)cc1Br ?
23 µM (inactive)

What GI50 value was documented for this compound, CCCCCOc1ccc(/C=N\c2ccc(-c3ccc(/N=C\c4ccc(OCCCCC)cc4)c(OC)c3)cc2OC)cc1 ?
> 100 µM (inactive)

Which GI50 value is on record for COc1ccc2c(c1)/C(=C\c1c(-c3ccccc3)nc3n1CCS3)C(=O)N2 ?
13.6 µM (inactive)

Entry under review: CCC(C)(O)c1cnc(CC(C)C)c(=O)n1O (stereo unspecified) . Reported GI50?
> 100 µM (inactive)

What value of measured GI50 is listed for Oc1ccc(-c2nc3ccc(F)cc3s2)cc1 ?
25.3 µM (inactive)

Requested read-out: GI50. Entry: c1ccc(-c2ccnc3c2ccc2c(-c4ccccc4)ccnc23)cc1
1.83 µM (inactive)
